Recorded values, source patent US20250082681A1.

For each of the binders below, state its pKd.
target_or_system: T1, recombinant human CLL1 extracellular domain, His-tagged (CLL1-His protein) (human, UniProt Q5QGZ9 65-265)
T1 construct: ECD made by transient expression in HEK293 (293-F) cells and purified by IMAC; also called recombinant human CLL1 protein; ECD of CLL1; not shown: His tag (protein called CLL1-His, purified by IMAC)
T1 sequence: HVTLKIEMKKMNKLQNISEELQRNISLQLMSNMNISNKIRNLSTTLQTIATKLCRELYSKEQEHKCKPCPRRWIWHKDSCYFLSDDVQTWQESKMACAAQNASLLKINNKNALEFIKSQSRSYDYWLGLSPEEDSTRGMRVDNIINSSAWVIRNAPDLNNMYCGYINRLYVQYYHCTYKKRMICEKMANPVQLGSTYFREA
test_protocol: SPR (BIACORE T200), IgG1 on recombinant human CLL1; column KD, unit inferred
In textbook form, pKd equals minus log to base ten of the concentration in mol/L.

# pKd (binder: AS138993 (antibody, V domains shown, Called 'IgG1', from a camel phage library, expressed in IPTG-induced supernatant with a C-terminal His-tag; also called anti-CLL1 IgG1) VH: QVQLQESGGDLVQPGGSLRLSCAASGFTFSSYDMTWVRQAPGKGLEWVSTINSGGGVTYYTDSVKGRFTISRDNAKNTLYLQMNSLKPEDTAMYYCAADLSWYHALDAWGQGTLVTVSS VL: SSELTQPAAVSVSLGETARITCQGGNFGSYYASWYQQKPGQAPVLVIHANDNRPSGIPERFSGSSSGGTVTLTISGAQAEDEADYYCQSYDSSANAVVFGGGTHLTVL ) is 7.89

# pKd (binder: AS141286 (antibody, V domains shown, Called 'IgG1', from a camel phage library, expressed in IPTG-induced supernatant with a C-terminal His-tag; also called anti-CLL1 IgG1) VH: QVQLVQSGGGLVQPGGSLRLSCAASRFPDGSYYMSWVRQGPGKGLEWVSSIYTGGDSTYYADSVKGRFTISKDNAKNALYLQMNSLKPEDTAVYYCAADPGGRYGPHEYNYWGQGTQVTVSS VL: SSELTQPSAVSVSLGETARITCQGGNIGSNYANWYQQKPGQAPVLVIYGDDSRPSGIPERFSGSSSGGTATLTISGAQAEDEADYYCQSADSSGYNAVFGGGTHLTVL ) is 8.92

# pKd (binder: AS141701 (antibody, V domains shown, Called 'IgG1', from a camel phage library, expressed in IPTG-induced supernatant with a C-terminal His-tag; also called anti-CLL1 IgG1) VH: QVQLVQSGGGLVQPGGSLRLSCAASGFTFSVYAMSWVRQAPGKGLEWVSAIKAANSDGDNTYYVDSVKGRFTISRDNAKNTLYLQLNSLKTEDTAIYYCAKAMYECSSGSWCPLGDALDAWGQGTLVTVSS VL: SSELTQPSAVSVSLGETARITCQGGNVRSSYVSWYQQKPGQAPVLVIYEDSERPSGIPERFSGSSSGGTATLTISGAQAEDEADYYCQSGDNSAYSAAVFGGGTHLTVL ) is 8.55
